Reported values of pIC50 for individual entries
system: LS-123; assay: cells; assay type: functional, cell-based, Homo sapiens; conditions: Homo sapiens, LS-123
Description: SANGER: Inhibition of human LS-123 cell growth in a cell viability assay.
pIC50: −log10 of the molar value.

Sample answers from the record:
CN1CCN(CCOc2cc(OC3CCOCC3)c3c(Nc4c(Cl)ccc5c4OCO5)ncnc3c2)CC1    < 5.70
C=CCNC1=C2C[C@@H](C)C[C@H](OC)[C@H](O)[C@@H](C)/C=C(\C)[C@H](OC(N)=O)[C@@H](OC)/C=C\C=C(/C)C(=O)NC(=CC1=O)C2=O    < 6.00
O=C(c1cc(Cc2n[nH]c(=O)c3ccccc23)ccc1F)N1CCN(C(=O)C2CC2)CC1    < 5.30
CN(c1ncccc1CNc1nc(Nc2ccc3c(c2)CC(=O)N3)ncc1C(F)(F)F)S(C)(=O)=O    < 5.59
CC(=O)O[C@@]12CO[C@@H]1C[C@H](O)[C@@]1(C)C(=O)[C@H](O)C3=C(C)[C@@H](OC(=O)[C@H](O)[C@@H](NC(=O)OC(C)(C)C)c4ccccc4)C[C@@](O)([C@@H](OC(=O)c4ccccc4)[C@H]21)C3(C)C    8.37

Task: Item O=C(/C=C/c1ccccc1)NC(NC(=S)Nc1cccc2cccnc12)C(Cl)(Cl)Cl (stereo not drawn) has what recorded pIC50?
Output: < 4.80

Task: Item "CS(=O)(=O)CCNCc1ccc(-c2ccc3ncnc(Nc4ccc(OCc5cccc(F)c5)c(Cl)c4)c3c2)o1" has what recorded pIC50?
Output: < 5.70

Task: Item COc1cc([C@@H]2c3cc4c(cc3[C@@H](O[C@@H]3O[C@@H]5CO[C@@H](C)O[C@H]5[C@H](O)[C@H]3O)[C@H]3COC(=O)[C@H]23)OCO4)cc(OC)c1O [ETOPOSIDE] has what recorded pIC50?
Output: 5.40

* * *

test system: HuTu80; experiment: cells; assay type: functional, cell-based, Homo sapiens, HUTU-80; details: Homo sapiens, HuTu80;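 note: growth inhibition of HuTu80 human cells, determined with a cell viability readout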
Description: SANGER: Inhibition of human HUTU-80 cell growth in a cell viability assay.
pIC50: −log10 of the molar value.
measured attribute: pIC50

Sample answers from the record:
COC(=O)CNC(=O)C(=O)OC    2.90
Cn1cc(C2=C(c3ccc(Cl)cc3Cl)C(=O)NC2=O)c2ccccc21    < 5.00
C=CCc1cccc(/C=N/NC(=O)CN2CCN(Cc3ccccc3)CC2)c1O    < 5.59
O=c1cc(-c2cccc3c2Sc2ccccc2S3)oc(N2CCOCC2)c1    < 5.00
CC(=O)O[C@@H]1[C@@H](OC(C)=O)[C@@H](O)[C@H](Oc2c(-c3ccc(O)cc3)oc3cc(O)cc(O)c3c2=O)O[C@H]1C    < 5.00

Task: Item "CO[C@H]1C[C@@H]2CC[C@@H](C)[C@@](O)(O2)C(=O)C(=O)N2CCCC[C@H]2C(=O)O[C@H]([C@H](C)C[C@@H]2CC[C@@H](O)[C@H](OC)C2)CC(=O)[C@H](C)/C=C(\C)[C@@H](O)[C@@H](OC)C(=O)[C@H](C)C[C@H](C)/C=C/C=C/C=C/1C" has what recorded pIC50?
Output: 8.35

Task: Item "Nc1ccn([C@@H]2O[C@H](CO)[C@@H](O)[C@@H]2O)c(=O)n1" has what recorded pIC50?
Output: 6.25

Task: Item "CNC(=O)c1cc(Oc2ccc(NC(=O)Nc3ccc(Cl)c(C(F)(F)F)c3)cc2)ccn1" has what recorded pIC50?
Output: < 5.40
